protocol notes: Nuclear factor erythroid 2-related factor 2/antioxidant responsive element (Nrf2/ARE) small molecule agonists: qHTS cell viability counter screen in human keratinocytes (AID 1919968); note: nearly all actives have a fitted effect of over 55% in size
condition set: KeratinoSens HaCaT ARE cells viability, CellTiter-Fluor, 24 h; series mostly up to 92.4 µM
Results filed as inconclusive are left out. Active and inactive are the calls of the source. Calls come from the whole dose curve; as a rule, active = well fitted cell-killing curve with a large enough effect in the repeat runs; inconclusive = weak or mixed curves, or effect the other way; inactive = flat fitted curve, though single readings scatter.
The reply should be one of these categories: active, inactive

Given COc1cccc(C=O)c1 , state the outcome it received in this test.
inactive

Given COc1ccc(C(O)(c2cncnc2)C2CC2)cc1 (stereo unspecified) , state the outcome it received in this test.
inactive

Given O=C(O)CCCc1ccc(N(CCCl)CCCl)cc1 , state the outcome it received in this test.
inactive

Given C=CC(=O)NC(C)(C)CC(C)=O , state the outcome it received in this test.
inactive

Given O=C(O)c1cc(Cl)ccc1Cl , state the outcome it received in this test.
inactive

Given CS(=O)(=O)NC(=O)c1cc(Oc2ccc(C(F)(F)F)cc2Cl)ccc1[N+](=O)[O-] , state the outcome it received in this test.
inactive

Given NC1(c2ccccc2)CCCCC1 , state the outcome it received in this test.
inactive

Given NC(=O)O , state the outcome it received in this test.
inactive

Given O=NN(c1ccccc1)c1ccccc1 , state the outcome it received in this test.
inactive

Given Cc1ccc2ccccc2c1 , state the outcome it received in this test.
inactive

Given NC(=O)CCl , state the outcome it received in this test.
inactive

Given N#Cc1ccc(Cl)cc1 , state the outcome it received in this test.
inactive

Given Cc1ccc([N+](=O)[O-])cc1 , state the outcome it received in this test.
inactive

Given C1CS1 , state the outcome it received in this test.
inactive

Given C[C@]12CC[C@H](O)CC1=CC[C@@H]1[C@@H]2CC[C@]2(C)C(=O)CC[C@@H]12 , state the outcome it received in this test.
inactive

Given CC(Cl)C(=O)O (stereo unspecified) , state the outcome it received in this test.
inactive

Given CC(=[OH+])/C=C(/C)[O-].CC(=[OH+])/C=C(\C)[O-].CC(=[OH+])/C=C(\C)[O-].[Fe] , state the outcome it received in this test.
inactive

Given C=CCO , state the outcome it received in this test.
inactive

Given CCOC(=O)c1cncn1C(C)c1ccccc1 (stereo unspecified) , state the outcome it received in this test.
inactive

Given CSc1nnc(C(C)(C)C)c(=O)n1N , state the outcome it received in this test.
inactive

Given CCCCN=C=O , state the outcome it received in this test.
inactive

Given CN(C)N=O , state the outcome it received in this test.
inactive

Given O=[N+]([O-])c1cc(Cl)ccc1Cl , state the outcome it received in this test.
inactive

Given c1ccc2c(c1)-c1cccc3cccc-2c13 , state the outcome it received in this test.
inactive

Given CC(C)(C)CC(C)(C)c1ccc(O)cc1 , state the outcome it received in this test.
active

Given CCCCOC(=O)c1ccccc1C(=O)OCCCC , state the outcome it received in this test.
inactive

Given CN1C(=O)NC(=O)C(C)(C2=CCCCC2)C1=O (stereo unspecified) , state the outcome it received in this test.
inactive

Given CC(=O)C(Cl)Cl , state the outcome it received in this test.
inactive

Given COC(=O)c1c(C(F)F)nc(C(F)(F)F)c(C2=NCCS2)c1CC(C)C , state the outcome it received in this test.
inactive

Given O=c1n(Cl)c(=O)n(Cl)c(=O)n1Cl , state the outcome it received in this test.
inactive

Given CC(Cl)(Cl)C(=O)O , state the outcome it received in this test.
inactive

----------
measurement target: KiSS-1 receptor (Homo sapiens) (UniProt Q969F8)
Sequence (Q969F8 whole entry, looked up): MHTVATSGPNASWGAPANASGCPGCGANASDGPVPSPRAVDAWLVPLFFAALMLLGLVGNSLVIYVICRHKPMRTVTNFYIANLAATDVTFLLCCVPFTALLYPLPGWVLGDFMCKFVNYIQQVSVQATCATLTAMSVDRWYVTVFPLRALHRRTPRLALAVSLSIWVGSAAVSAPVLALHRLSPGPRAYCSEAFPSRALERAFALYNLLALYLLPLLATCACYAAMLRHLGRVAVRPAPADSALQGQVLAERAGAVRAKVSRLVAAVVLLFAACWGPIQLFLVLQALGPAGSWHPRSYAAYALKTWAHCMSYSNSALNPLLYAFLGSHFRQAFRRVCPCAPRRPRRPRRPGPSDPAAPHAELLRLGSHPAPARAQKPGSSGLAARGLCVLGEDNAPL
protocol notes: Human kisspeptin (KISS1R) small molecule agonists, calcium flux assay in KISS1R-HEK293 cells (AID 1920064)
condition set: KISS1R-HEK293, calcium flux fluorescence, agonist; series mostly up to 76.8 µM
Activity calls are given as the source filed them. The call rests on the fitted dose curve; in most records, active means well fitted activation curve with a large enough effect in the repeat runs; inconclusive means weak or mixed curves; inactive means flat fitted curve, though single readings scatter.
property: activation

Sample records with activation:
compound | activation
COP(=O)(NC(C)=O)SC (stereo not given) | inactive
CCN | inactive
Cc1cc(C)cc(C)c1 | inactive
CCCCCCCCn1sccc1=O | inactive
Cc1ccc(C(=O)Cl)cc1 | inactive
Clc1ccc(C(c2ccccc2Cl)C(Cl)(Cl)Cl)cc1 (stereo not given) | inactive
C=C(C)C#N | inactive
CCCCC(CC)COC(=O)c1ccc(C(=O)OCC(CC)CCCC)c(C(=O)OCC(CC)CCCC)c1 (stereo not given) | inactive
CCNc1nc(Cl)nc(NC(C)(C)C#N)n1 | inactive
COS(=O)(=O)c1ccc(C)cc1 | inactive

Turning now to a further compound:
Query (compound): CN=C=O ; field requested: activation
inactive

----------
protocol notes: p53 small molecule agonists, cell-based qHTS assay: qHTS cell viability counter screen (AID 1963581); note: nearly all actives have a fitted effect of over 45% in size
condition set: p53RE-bla HCT-116 viability, ATP luminescence, 16 h; series mostly up to 66 µM
Results filed as inconclusive are left out. The source made the active and inactive calls. Calls come from the whole dose curve.
The reply should be one of these categories: active, inactive

Given NCC(O)c1ccc(O)cc1 (stereo not given) , state the outcome it received in this test.
inactive

Given Nc1ccc(-c2ccc(N)cc2)cc1 , state the outcome it received in this test.
inactive

Given Cc1ccc(-c2nc3ccc(C)cn3c2CC(=O)N(C)C)cc1 , state the outcome it received in this test.
inactive

Given Oc1cc(Cl)ccc1Oc1ccc(Cl)cc1Cl , state the outcome it received in this test.
active

Given CCCCON=O , state the outcome it received in this test.
inactive

Given CNC(=O)O/N=C/C(C)(C)S(C)(=O)=O , state the outcome it received in this test.
inactive

Given Cc1ccc(N)cc1C , state the outcome it received in this test.
inactive

Given Nc1ccc(-c2ccccc2)cc1 , state the outcome it received in this test.
inactive

Given CCOS(=O)(=O)OCC , state the outcome it received in this test.
inactive

Given COC(=O)c1ccccc1CS(=O)(=O)NC(=O)Nc1nc(OC)cc(OC)n1 , state the outcome it received in this test.
inactive

Given O=[N+]([O-])c1c(Cl)c(Cl)c(Cl)c(Cl)c1Cl , state the outcome it received in this test.
inactive

Given CC1CN1 (stereo not given) , state the outcome it received in this test.
inactive

Given C=C(C)C#N , state the outcome it received in this test.
inactive

Given O=C(O)C(Cl)Cl , state the outcome it received in this test.
inactive

Given CCNc1nc(NCC)nc(SC)n1 , state the outcome it received in this test.
inactive

----------
protocol notes: p53 small molecule agonists, cell-based qHTS assay with human liver microsomes (AID 1963577)
condition set: HCT-116 p53RE-bla with human liver microsomes, ratio, 16 h; series mostly up to 66 µM
Records with an inconclusive call do not appear. Calls of active or inactive are those of the source. Calls come from the whole dose curve.
The reply should be one of these categories: active, inactive

Given CC(c1ccc(O)cc1)c1ccc(O)cc1 , state the outcome it received in this test.
inactive

Given c1ccc2c(c1)sc1ccccc12 , state the outcome it received in this test.
inactive

Given Nc1cnn(-c2ccccc2)c(=O)c1Cl , state the outcome it received in this test.
inactive

Given CC(C)OC(=O)Nc1cccc(Cl)c1 , state the outcome it received in this test.
inactive

Given CS(=O)(=O)NC(=O)c1cc(Oc2ccc(C(F)(F)F)cc2Cl)ccc1[N+](=O)[O-] , state the outcome it received in this test.
inactive

Given Cc1ccc2c(c1N)C(=O)c1ccccc1C2=O , state the outcome it received in this test.
inactive

Given CCC(CC)Nc1c([N+](=O)[O-])cc(C)c(C)c1[N+](=O)[O-] , state the outcome it received in this test.
inactive

Given O=NN(c1ccccc1)c1ccccc1 , state the outcome it received in this test.
inactive

Given Sc1ccccc1Cl , state the outcome it received in this test.
inactive

Given C=CC(C)=O , state the outcome it received in this test.
inactive

Given O=C1C(Cl)=C(Cl)C(=O)C(Cl)=C1Cl , state the outcome it received in this test.
inactive

Given [O-][Cl+]O , state the outcome it received in this test.
inactive

Given C=CC(=O)NC(C)(C)CC(C)=O , state the outcome it received in this test.
inactive

Given CN(C)N , state the outcome it received in this test.
inactive

Given Clc1nc(Cl)nc(Nc2ccccc2Cl)n1 , state the outcome it received in this test.
inactive

Given ClCCN1CCOCC1 , state the outcome it received in this test.
inactive

Given Nc1ccc([As](=O)(O)O)cc1 , state the outcome it received in this test.
inactive

Given COP(=S)(OC)Oc1ccc(S(=O)(=O)N(C)C)cc1 , state the outcome it received in this test.
active

Given CCCCCCI , state the outcome it received in this test.
inactive

Given C=CC(=O)OCC(CC)(COC(=O)C=C)COC(=O)C=C , state the outcome it received in this test.
inactive

Given C=C(C)C(=O)OCC1CO1 (stereo not given) , state the outcome it received in this test.
inactive

Given C[C@]12CC[C@H]3[C@@H](CC=C4C[C@@H](O)CC[C@@]43C)[C@@H]1CC[C@@H]2O , state the outcome it received in this test.
inactive

Given COC(=O)c1ccccc1CS(=O)(=O)NC(=O)Nc1nc(OC)cc(OC)n1 , state the outcome it received in this test.
inactive

Given N#Cc1ccc(Cl)cc1 , state the outcome it received in this test.
inactive

Given CCCCC(CC)CO[N+](=O)[O-] (stereo not given) , state the outcome it received in this test.
inactive

Given CCC[CH2][Sn]([Cl])([Cl])[Cl] , state the outcome it received in this test.
inactive

Given CCOP(=O)(CN(CCO)CCO)OCC , state the outcome it received in this test.
inactive

Given CC(C)[N+](C)(CCC(C(N)=O)(c1ccccc1)c1ccccc1)C(C)C , state the outcome it received in this test.
inactive

Given Cc1ccc(CCl)cc1 , state the outcome it received in this test.
inactive

Given C[N+](C)(C)C , state the outcome it received in this test.
inactive
